For each record, write down the corresponding viability, T/C.
Test system: HOP-62 complex spheroids with HUVEC/MSC, viability
Experiment: Anticancer human tumor HOP-62 cell line growth inhibition [RAS];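 also: spheroids exposed to agents for seven days before readout; 100% = DMSO vehicle control viability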
Conditions: second compound 0.0316 µM; first compound 0.01 µM; active compounds read low
One number for each entry, in %.

Solved entries (count: 5):
• O=C(c1ccc(F)c(F)c1Nc1ccc(I)cc1F)N1CC(O)([C@@H]2CCCCN2)C1 + C#Cc1c(F)ccc2cc(O)cc(-c3ncc4c(N5CC6CCC(C5)N6)nc(OCC56CCCN5CC(F)C6)nc4c3F)c12 = 113
• CC(C)n1nc(-c2ccc3oc(N)nc3c2)c2c(N)ncnc21 + C=CC(=O)N1CCN(c2nc(OCC3CCCN3C)nc3c(F)c(-c4nc(N)cc(C)c4C(F)(F)F)c(Cl)cc23)C(C)C1 = 34.4
• CC(C)n1nc(-c2ccc3oc(N)nc3c2)c2c(N)ncnc21 + C#Cc1c(F)ccc2cc(O)cc(-c3ncc4c(N5CC6CCC(C5)N6)nc(OCC56CCCN5CC(F)C6)nc4c3F)c12 = 73.7
• O=C(c1ccc(F)c(F)c1Nc1ccc(I)cc1F)N1CC(O)([C@@H]2CCCCN2)C1 + C=CC(=O)N1CCN(c2nc(OCC3CCCN3C)nc3c(F)c(-c4nc(N)cc(C)c4C(F)(F)F)c(Cl)cc23)C(C)C1 = 60.1
• Nc1ccn(C2OC(CO)C(O)C2(F)F)c(=O)n1 (stereo unspecified) + C=CC(=O)N1CCN(c2nc(OCC3CCCN3C)nc3c(F)c(-c4nc(N)cc(C)c4C(F)(F)F)c(Cl)cc23)C(C)C1 = 11.7

Batch request: viability, T/C per item, same order as input.
1. CCN1CCN(Cc2ccc(Nc3ncc(F)c(-c4cc(F)c5nc(C)n(C(C)C)c5c4)n3)nc2)CC1 + C=CC(=O)N1CCN(c2nc(OCC3CCCN3C)nc3c(F)c(-c4nc(N)cc(C)c4C(F)(F)F)c(Cl)cc23)C(C)C1
2. Nc1ccn(C2OC(CO)C(O)C2(F)F)c(=O)n1 (stereo unspecified) + C#Cc1c(F)ccc2cc(O)cc(-c3ncc4c(N5CC6CCC(C5)N6)nc(OCC56CCCN5CC(F)C6)nc4c3F)c12
3. C=CC(=O)Nc1cc(Nc2nccc(-c3cn(C)c4ccccc34)n2)c(OC)cc1N(C)CCN(C)C + C=CC(=O)N1CCN(c2nc(OCC3CCCN3C)nc3c(F)c(-c4nc(N)cc(C)c4C(F)(F)F)c(Cl)cc23)C(C)C1
4. C=CC(=O)Nc1cc(Nc2nccc(-c3cn(C)c4ccccc34)n2)c(OC)cc1N(C)CCN(C)C + C#Cc1c(F)ccc2cc(O)cc(-c3ncc4c(N5CC6CCC(C5)N6)nc(OCC56CCCN5CC(F)C6)nc4c3F)c12
5. CCN1CCN(Cc2ccc(Nc3ncc(F)c(-c4cc(F)c5nc(C)n(C(C)C)c5c4)n3)nc2)CC1 + C#Cc1c(F)ccc2cc(O)cc(-c3ncc4c(N5CC6CCC(C5)N6)nc(OCC56CCCN5CC(F)C6)nc4c3F)c12
6. C=CC(=O)N1CCN(c2nc(OCC3CCCN3C)nc3c(F)c(-c4nc(N)cc(C)c4C(F)(F)F)c(Cl)cc23)C(C)C1 (stereo unspecified) + C#Cc1c(F)ccc2cc(O)cc(-c3ncc4c(N5CC6CCC(C5)N6)nc(OCC56CCCN5CC(F)C6)nc4c3F)c12

Solution:
74.3
13.4
69.9
105
105
71.2
